# credit: paper PMC6221957

Assay: Cytotoxicity against the panel of 10 tumor cell lines (summary statements)
Format: cell-based
Details: human; range over the tumor cell lines of Table 3; read-out: Cytotoxicities IC50 values in the range over the cell lines
observable: IC50 at 72 h

compound COC(=O)c1c(C)cc(O)cc1Oc1cc(C)cc(O)c1 , IC50 at 72 h observed: 5.7 to 68.2 µM

---

Experiment: Cytotoxicity assay (CCK-8), MOLT-4
Format: cell-based
Details: human; MOLT-4 cells, CCK-8, 72 h; read-out: Cytotoxic results IC50, MOLT-4
Task for the reader: assign each of the following molecules its reported IC50 at 72 h.

Given item COC(=O)c1c(C)cc(O)cc1Oc1cc(C)cc(O)c1 [Compound 3, Diorcinol L] , the value recorded as its IC50 at 72 h is > 200 µM

get_value(item= Cc1cc(CO)c2c(=O)c3c(O)cccc3oc2c1 [Compound 8] , readout=IC50 at 72 h) returns > 200 µM

---

Tested on: Huh-7
Assay: Cytotoxicity assay (CCK-8), Huh-7
Assay type: cell-based
Conditions: Huh-7 cells, CCK-8, 72 h; read-out: Cytotoxic results IC50, Huh-7
observable: IC50 (nM)
Write the answer as a number in nM, unit excluded.

For CC(/C=C/C(=O)NO)=C\[C@@H](C)C(=O)c1ccc(N(C)C)cc1 [TSA, trichostatin A, reference compound] on Huh-7, measured IC50 was 80

---

Test system: K562
Assay: Cytotoxicity assay (CCK-8), K562
Format: cell-based
Conditions: K562 cells, CCK-8, 72 h; read-out: Cytotoxic results IC50, K562
Experimental: Cytotoxic activities of the isolated compounds 1–17 and trichostatin A (TSA, positive control) against 10 tumor cell lines (K562, MCF-7, A549, Huh-7, H1975, HeLa, HL7702, HL60, MOLT-4, and DU145) were tested. […]. Cytotoxicity was assayed with the CCK-8 (Dojindo, Japan) method. […] A cell viability assay was determined with the CCK-8 (Dojindo, Japan) assay. […] After 72 h incubation, CCK-8 reagent was added, and absorbance was measured at 450 nm using an Envision 2104 multilabel reader (PerkinElmer, USA). […]
observable: IC50 (nM)
Respond numerically; units are nM and should not be typed.

GET /value?item= CC(/C=C/C(=O)NO)=C\[C@@H](C)C(=O)c1ccc(N(C)C)cc1 [TSA, trichostatin A, reference compound] &field=IC50 returns 100

---

Experiment: Cytotoxicity assay (CCK-8), Huh-7
Assay type: cell-based
Conditions: human; Huh-7 cells, CCK-8, 72 h; read-out: Cytotoxic results IC50, Huh-7
Task for the reader: assign each of the following compounds its reported IC50 at 72 h.
Field: numeric (µM). Do not append units.

The reported IC50 at 72 h of the compound Cc1cc(CO)c2c(=O)c3c(O)cccc3oc2c1 [Compound 8] was 122

// field: IC50 at 72 h; key: COC(=O)c1c(C)cc(O)cc1Oc1cc(C)cc(O)c1 [Compound 3, Diorcinol L] ; value = 5.7

---

Tested on: DU145
Assay: Cytotoxicity assay (CCK-8), DU145
Assay type: cell-based
Details: DU145 cells, CCK-8, 72 h; read-out: Cytotoxic results IC50, DU145
observable: pIC50
Units for pIC50: none; it is -log10 of a concentration expressed in mol/L.

Value of measured pIC50 for the entry CC(/C=C/C(=O)NO)=C\[C@@H](C)C(=O)c1ccc(N(C)C)cc1 [TSA, trichostatin A, reference compound] : 7.40
